The measured values listed here are drawn from ChEMBL document CHEMBL3137667.

Settings: human
Binary call on Hepatotoxicity (cytolytic) with cut-off 1: strictly below means yes, and equality or higher means no.

Here are 5 compounds together with their reported answers.
Cc1cc2c(cc1CC(=O)c1sccc1S(=O)(=O)Nc1onc(C)c1Cl)OCO2
yes
Cc1cccc(Nc2ccncc2S(=O)(=O)NC(=O)NC(C)C)c1 [TORSEMIDE]
yes
Nc1ccc(O)c(C(=O)O)c1
no
Cc1oc(=O)oc1COC(=O)[C@@H]1N2C(=O)[C@@H](NC(=O)[C@H](N)c3ccccc3)[C@H]2SC1(C)C
yes
CC(C)(Oc1ccc(Cl)cc1)C(=O)OCCOC(=O)c1cccnc1 [ETOFIBRATE]
yes

Task item: Bench note: check whether OCC(Br)(Br)Br shows Hepatotoxicity (cytolytic) below 1
Reply: no

Task item: And what about the compound COc1cccc(C2(O)CCCCC2CN(C)C)c1 (centres undefined) ?
Reply: yes

Task item: Subsequent entry: Cc1ccc2c(-c3ccccc3)nc(=O)n(C(C)C)c2c1
Reply: yes

Task item: Further, for CN(C)C(=O)Oc1cc(OC(=O)N(C)C)cc(C(O)CNC(C)(C)C)c1 (centres undefined) ?
Reply: yes

Task item: One more compound: NS(=O)(=O)c1cc2c(cc1Cl)N=CNS2(=O)=O [CHLOROTHIAZIDE]
Reply: yes

Task item: Now try COc1cnc(NS(=O)(=O)c2ccc(N)cc2)nc1 .
Reply: yes

====

Assay: Highest frequency of moderate liver toxicity observed during clinical trials, expressed as a percentage. [column '% BIOL' in source]
Settings: human, Liver
Property: Hepatotoxicity (moderate) (%)
One number for each entry, in %.

Please review the entries below; each comes with its answer.
OC(Cn1cncn1)(Cn1cncn1)c1ccc(F)cc1F
83.3
COc1cc([C@@H]2c3cc4c(cc3[C@@H](O[C@@H]3O[C@@H]5CO[C@@H](C)O[C@H]5[C@H](O)[C@H]3O)[C@H]3COC(=O)[C@H]23)OCO4)cc(OC)c1O [ETOPOSIDE]
50
Cc1c(N(C)C)c(=O)n(-c2ccccc2)n1C
0
C=CCOc1ccccc1OCC(O)CNC(C)C (stereo not given)
0
[AsH3]
35.7

The following molecules each have a reported value; give each one's Hepatotoxicity (moderate).
1. Cc1cnc(C(=O)NCCc2ccc(S(=O)(=O)NC(=O)NC3CCCCC3)cc2)cn1 [GLIPIZIDE]
2. Clc1ccc2nsnc2c1NC1=NCCN1
3. O=C(O)c1cc(-c2ccc(F)cc2F)ccc1O
4. Nc1c2c(nc3ccccc13)CCCC2
5. CN(C)CCC=C1c2ccccc2C=Cc2ccccc21

Reply:
1: 0; 2: 0; 3: 5; 4: 54; 5: 0

====

Answer each item with its documented Hepatotoxicity (time to onset).
Assay: Times to onset, minimal and maximal, observed in the indexed observations. [column 'DELAI' in source]
Conditions: human

The cases that follow already have their Hepatotoxicity (time to onset) on record.
CCCCCCCCCCCCCCCCOP(=O)([O-])OCC[N+](C)(C)C
2 weeks
CC(=O)c1ccc2c(c1)N(CCCN(C)C)c1ccccc1S2
3 months
CCCN(CCC)C(=O)Cc1c(-c2ccc(Cl)cc2)nc2ccc(Cl)cn12
1 month - 8 months
COc1cc(C)c(/C=C/C(C)=C/C=C/C(C)=C/C(=O)O)c(C)c1C
1.5 hours - 5 months

Lab note: each compound below needs its Hepatotoxicity (time to onset) filled in.
1. NC(=O)c1cnccn1 [PYRAZINAMIDE]
2. O=C(O)COc1ccc(C(=O)c2cccs2)c(Cl)c1Cl

Reply:
1: 2 hours - 1.2 years; 2: 2 weeks - 1 year

====

Test: Highest frequency of moderate liver toxicity observed during clinical trials, expressed as a percentage. [column '% BIOL' in source]
Details: human
I'd be grateful if you could share measured Hepatotoxicity (moderate) for these entries.

Worked cases, answers included:
NC[C@@H]1CC[C@@H](N)[C@@H](O[C@H]2[C@H](O)[C@@H](O[C@H]3O[C@H](CO)[C@@H](O)[C@H](N)[C@H]3O)[C@H](N)C[C@@H]2N)O1
13.7%
CN1C(=O)CCS(=O)(=O)C1c1ccc(Cl)cc1 (centres undefined)
0%
CNC1=Nc2ccc(Cl)cc2C(c2ccccc2)=[N+]([O-])C1 [CHLORDIAZEPOXIDE]
11%

Field: next compound
Task item: For CCCNC(=O)NS(=O)(=O)c1ccc(Cl)cc1 [CHLORPROPAMIDE] , what is its reported Hepatotoxicity (moderate)?
Reply: 25%

====

Settings: human
I'd appreciate it if you could supply Hepatotoxicity (severe hepatitis) values for the items below.
Give bare numbers.

Sample records with Hepatotoxicity (severe hepatitis):
CC(=N)N1CC[C@H](SC2=C(C(=O)O)N3C(=O)[C@H]([C@@H](C)O)[C@H]3C2)C1.O=C(O)CCNC(=O)c1ccccc1
0
CC(=O)Oc1ccc(C(=C2CCCCC2)c2ccc(OC(C)=O)cc2)cc1 [CYCLOFENIL]
0
CN(C)c1ccc(O)c2c1C[C@H]1C[C@H]3[C@H](N(C)C)C(O)=C(C(N)=O)C(=O)[C@@]3(O)C(O)=C1C2=O [MINOCYCLINE]
8

Task item: What value of measured Hepatotoxicity (severe hepatitis) is listed for CN1CCCN(C(c2ccccc2)c2ccc(Cl)cc2)CC1 (centres undefined) [HOMOCHLORCYCLIZINE] ?
Reply: 0

====

Settings: human, serum
Answer each item with its documented Hepatotoxicity (acute).
Numbers only.

N[C@@H](C(=O)N[C@@H]1C(=O)N2C(C(=O)O)=C(Cl)CC[C@H]12)c1ccccc1 [LORACARBEF ANHYDROUS]
1
O=[N+]([O-])O[C@H]1CO[C@H]2[C@@H]1OC[C@H]2O[N+](=O)[O-] [ISOSORBIDE DINITRATE]
1
CC(=O)[C@H]1CC[C@H]2[C@@H]3CCC4=CC(=O)CC[C@]4(C)[C@H]3CC[C@]12C [PROGESTERONE]
3

Batch of 4 molecules: report Hepatotoxicity (acute) for each.
1. Cc1[nH]cnc1CSCCNc1ncc(Cc2ccc3c(c2)OCO3)c(=O)[nH]1 [OXMETIDINE]
2. C[C@H]1COc2c(N3CCN(C)CC3)c(F)cc3c(=O)c(C(=O)O)cn1c23.C[C@H]1COc2c(N3CCN(C)CC3)c(F)cc3c(=O)c(C(=O)O)cn1c23.O [LEVOFLOXACIN]
3. O=C1C(CC[S+]([O-])c2ccccc2)C(=O)N(c2ccccc2)N1c1ccccc1 (configuration not stated) [SULFINPYRAZONE]
4. CN(Cc1cc(Br)cc(Br)c1N)C1CCCCC1 [BROMHEXINE]

Reply:
1
7
1
0

====

Test: Highest frequency of acute liver toxicity observed during clinical trials, expressed as a percentage. [column '% AIGUE' in source]
Conditions: human
Property: Hepatotoxicity (acute)
In your response, put the unit directly after the numeric value.

The cases that follow already have their Hepatotoxicity (acute) on record.
CC(C(=O)O)c1ccc(CC2CCCC2=O)cc1 (stereo not drawn)
0%
c1ccc(C2(N3CCCCC3)CCCCC2)cc1
0%
CC(C(=O)O)c1ccc(N2CC=CC2)c(Cl)c1 (stereo not drawn)
0.3%
CCc1oc2ccccc2c1C(=O)c1cc(Br)c(O)c(Br)c1
0%
CCC(COC(=O)c1cc(OC)c(OC)c(OC)c1)(c1ccccc1)N(C)C (stereo not drawn)
0%

List Hepatotoxicity (acute) for every entry below, keeping the order given.
1. CC(=O)CC(c1ccc([N+](=O)[O-])cc1)c1c(O)c2ccccc2oc1=O (stereo not drawn)
2. C#C[C@]1(O)CC[C@H]2[C@@H]3CCC4=Cc5oncc5C[C@]4(C)[C@H]3CC[C@@]21C
3. CC1=C(CC(=O)O)c2cc(F)ccc2/C1=C\c1ccc([S+](C)[O-])cc1 (stereo not drawn)
4. COc1ccc2c(C(=S)N(C)CC(=O)O)cccc2c1C(F)(F)F
5. CCNC1=Nc2ccc(Cl)cc2C(C)(c2ccccc2)O1 (stereo not drawn)
6. CCC1(c2ccccc2)C(=O)NC(=O)NC1=O
7. CC(C)(C)c1ccc(CCC(O)COc2ccc(C(=O)O)cc2)cc1 (stereo not drawn)
8. C[C@]12C=CC(=O)C=C1CC[C@@H]1[C@@H]2C(=O)C[C@@]2(C)[C@H]1CC[C@]2(O)C(=O)CO

Reply:
1: 0%; 2: 9.4%; 3: 0.2%; 4: 0.2%; 5: 0%; 6: 0%; 7: 0%; 8: 0%

Hi there! I need Hepatotoxicity (acute) for each item below, if you can.
1. CCOC(=O)C(C)(CC)Oc1ccc(Cc2ccc(Cl)cc2)cc1 (stereo not drawn) [BECLOBRATE]
2. CC[C@]1(O)C[C@H]2CN(CCc3c([nH]c4ccccc34)[C@@](C(=O)OC)(c3cc4c(cc3OC)N(C=O)[C@H]3[C@@](O)(C(=O)OC)[C@H](OC(C)=O)[C@]5(CC)C=CCN6CC[C@]43[C@@H]65)C2)C1
3. CC(=O)Nc1c(I)c(NC(C)=O)c(I)c(C(=O)O)c1I
4. Nc1nc(N)c2nc(-c3ccccc3)c(N)nc2n1
5. CN1C2CCCC1CC(NC(=O)c1nn(C)c3ccccc13)C2 (stereo not drawn)

Reply:
["0%", "0%", "0%", "0%", "0%"]
